# Tested on: 616215-338-R-J1-PDC complex spheroid growth, % test/control;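 note: spheroids exposed to agents for seven days before readout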
# assay_details: Anticancer human tumor 616215-338-R-J1-PDC patient-derived colon adenocarcinoma cell line growth inhibition [Asc]
# conditions_used: curve of first compound; second compound 3.16 µM
metric_name: IC50

[
  {
    "compound": "C=C(F)C(=O)N1CCN(c2nc(OCC3CCCN3C)nc3c2CCN(c2cccc4cccc(Cl)c24)C3)CC1CC#N (stereo not given) + Cc1c(S(C)(=O)=O)c(-c2cc(F)cc(N3CCN(c4ccc(NS(=O)(=O)c5ccc(NC(CCN6CCC(C(=O)OCCCP(=O)(O)O)CC6)CSc6ccccc6)c(S(=O)(=O)C(F)(F)F)c5)cc4)CC3)c2)c(-c2ccc(Cl)cc2)n1C(C)C",
    "study_system": "616215-338-R-J1-PDC complex spheroid growth, % test/control",
    "metric_name": "IC50",
    "obs_value": "< 31.6 nM"
  },
  {
    "compound": "C=CC(=O)N1CCN(c2nc(=O)n(-c3c(C)ccnc3C(C)C)c3nc(-c4c(O)cccc4F)c(F)cc23)C(C)C1 (stereo not given) + Cc1c(S(C)(=O)=O)c(-c2cc(F)cc(N3CCN(c4ccc(NS(=O)(=O)c5ccc(NC(CCN6CCC(C(=O)OCCCP(=O)(O)O)CC6)CSc6ccccc6)c(S(=O)(=O)C(F)(F)F)c5)cc4)CC3)c2)c(-c2ccc(Cl)cc2)n1C(C)C",
    "study_system": "616215-338-R-J1-PDC complex spheroid growth, % test/control",
    "metric_name": "IC50",
    "obs_value": "< 31.6 nM"
  },
  {
    "compound": "NC1CCC(NC2CC2c2ccccc2)CC1 (stereo not given) + Cc1c(S(C)(=O)=O)c(-c2cc(F)cc(N3CCN(c4ccc(NS(=O)(=O)c5ccc(NC(CCN6CCC(C(=O)OCCCP(=O)(O)O)CC6)CSc6ccccc6)c(S(=O)(=O)C(F)(F)F)c5)cc4)CC3)c2)c(-c2ccc(Cl)cc2)n1C(C)C",
    "study_system": "616215-338-R-J1-PDC complex spheroid growth, % test/control",
    "metric_name": "IC50",
    "obs_value": "< 0.316 nM"
  },
  {
    "compound": "O=C(c1ccc(F)c(F)c1Nc1ccc(I)cc1F)N1CC(O)([C@@H]2CCCCN2)C1 + Cc1c(S(C)(=O)=O)c(-c2cc(F)cc(N3CCN(c4ccc(NS(=O)(=O)c5ccc(NC(CCN6CCC(C(=O)OCCCP(=O)(O)O)CC6)CSc6ccccc6)c(S(=O)(=O)C(F)(F)F)c5)cc4)CC3)c2)c(-c2ccc(Cl)cc2)n1C(C)C",
    "study_system": "616215-338-R-J1-PDC complex spheroid growth, % test/control",
    "metric_name": "IC50",
    "obs_value": "< 3.16 nM"
  },
  {
    "compound": "CNC(C)C(=O)NC1CN(S(=O)(=O)c2cccc(S(=O)(=O)N3CCC4CCC(C(=O)NC(c5ccccc5)c5ccccc5)N4C(=O)C(NC(=O)C(C)NC)C3)c2)CCC2CCC(C(=O)NC(c3ccccc3)c3ccccc3)N2C1=O (stereo not given) + Cc1c(S(C)(=O)=O)c(-c2cc(F)cc(N3CCN(c4ccc(NS(=O)(=O)c5ccc(NC(CCN6CCC(C(=O)OCCCP(=O)(O)O)CC6)CSc6ccccc6)c(S(=O)(=O)C(F)(F)F)c5)cc4)CC3)c2)c(-c2ccc(Cl)cc2)n1C(C)C",
    "study_system": "616215-338-R-J1-PDC complex spheroid growth, % test/control",
    "metric_name": "IC50",
    "obs_value": "< 3.16 nM"
  }
]

Numbers sourced from PubChem BioAssay AID1963448.
